Source: paper PMC10945555

- Tested on: biofilm-producing Staphylococcus epidermidis strains
- assay.overview: Biofilm eradication (MBEC Assay Kit)
- Type: cell-based
- assay.setup: clinical strain 58 (Table S4)
reported.property: MBEC (µg/mL)
Number only, in µg/mL; omit the unit.

[in] Provide value of MBEC for this record tested with biofilm-producing Staphylococcus epidermidis strains: O=S(=O)(NC1CCN(CCC(Oc2ccc(C(F)(F)F)cc2)c2cccs2)CC1)c1cccc(Cl)c1 (stereo not shown)
[out] 125

[in] Subsequent entry: O=S(=O)(NC1CCN(CCC(Oc2ccc(C(F)(F)F)cc2)c2ccccc2)CC1)c1cccc(Cl)c1 (stereo not shown)
[out] 125

[in] Subsequent entry: CC(=O)NC[C@H]1CN(c2ccc(N3CCOCC3)c(F)c2)C(=O)O1 [linezolid, reference compound]
[out] 50

[in] Subsequent entry: O=C(Nc1cccc(Cl)c1)NC1CCN(CCC(Oc2ccc(C(F)(F)F)cc2)c2cccs2)CC1 (stereo not shown)
[out] 31.25
